system under test: T1, Soluble mouse EPOR chimera protein (mouse, UniProt P14753 25-249)
T1 construct: Bought reagent (R&D Systems), amine-coupled to a carboxymethylated dextran SPR chip; it says only 'soluble' and 'chimera'; also called Receptor mouse EPOR chimera protein; erythropoietin receptor
T1 sequence (looked up): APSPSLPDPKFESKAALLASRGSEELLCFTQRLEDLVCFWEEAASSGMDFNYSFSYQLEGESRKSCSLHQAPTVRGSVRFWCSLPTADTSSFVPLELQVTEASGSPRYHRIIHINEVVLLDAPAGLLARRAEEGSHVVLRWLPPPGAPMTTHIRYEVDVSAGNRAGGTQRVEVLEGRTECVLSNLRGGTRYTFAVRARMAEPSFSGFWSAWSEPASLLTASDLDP
measurement description: SPR (Reichert SR 7500C), mouse EPOR chimera amine-coupled on chip, peptide flowed at 5, 2.5 and 1.25 uM
Listed below: Kd values for each entry.
quantity: Kd (µM)

>>> recorded_number("LQLHVLKAVSGLRTLTTLLRALG (Synthetic 23-mer made as a monomer by solid phase synthesis; No terminal protecting group is stated for the peptide as tested; also called erythropoietin-induced peptide) [SY-1]")
1410
>>> recorded_number("LQLHVLKAVAGLRTLTMIRRALA (Synthetic 23-mer made as a monomer by solid phase synthesis; also called erythropoietin-induced peptide) [SY-3]")
2160
>>> recorded_number("LQLHVLKAVSGLRTLTMIRRALG (Synthetic 23-mer made as a monomer by solid phase synthesis; also called erythropoietin-induced peptide) [SY-2]")
1550
